From: patent US5409932A

# Tested on: human T cells
# testMethodNotes: Inhibition of 5-HT-dependent T Cell Proliferation
# Type: cell-based
# setupConditions: Homo sapiens, T-cell, monocyte-free human T cells stimulated with PWM and 5-HT; 3H-thymidine incorporation; 7 days
valueKind: IC50 (µM)
Provide only the numeric value, understood in µM.

Sample records with IC50:
>  <compound>
Fc1ccccc1N1CCN(CCCN2CC3C4c5ccccc5C(c5ccccc54)C3C2)CC1 (centres unmarked)

>  <valueKind>
IC50

>  <valueMeasured>
7

$$$$
>  <compound>
COc1ccccc1N1CCN(CCCN2CC3C4c5ccccc5C(c5ccccc54)C3C2)CC1 (centres unmarked)

>  <valueKind>
IC50

>  <valueMeasured>
3

$$$$
>  <compound>
FC(F)(F)c1ccc(N2CCN(CCCCN3CC4C5c6ccccc6C(c6ccccc65)C4C3)CC2)cc1 (centres unmarked)

>  <valueKind>
IC50

>  <valueMeasured>
2

$$$$

Now consider the entry below.
Request: What value of IC50 has been reported for the following compound? Cc1ccc(N2CCN(CCCCN3CC4C5c6ccccc6C(c6ccccc65)C4C3)CC2)cc1 (centres unmarked)
Result: 0.6
